TARGET: BRM (Homo sapiens, UniProt P51531)
Construct: In-Cell Western Screen of BRM Degradation in SW1573 Cells; endogenous in cells; host or cells: SW1573
Sequence (P51531 whole entry): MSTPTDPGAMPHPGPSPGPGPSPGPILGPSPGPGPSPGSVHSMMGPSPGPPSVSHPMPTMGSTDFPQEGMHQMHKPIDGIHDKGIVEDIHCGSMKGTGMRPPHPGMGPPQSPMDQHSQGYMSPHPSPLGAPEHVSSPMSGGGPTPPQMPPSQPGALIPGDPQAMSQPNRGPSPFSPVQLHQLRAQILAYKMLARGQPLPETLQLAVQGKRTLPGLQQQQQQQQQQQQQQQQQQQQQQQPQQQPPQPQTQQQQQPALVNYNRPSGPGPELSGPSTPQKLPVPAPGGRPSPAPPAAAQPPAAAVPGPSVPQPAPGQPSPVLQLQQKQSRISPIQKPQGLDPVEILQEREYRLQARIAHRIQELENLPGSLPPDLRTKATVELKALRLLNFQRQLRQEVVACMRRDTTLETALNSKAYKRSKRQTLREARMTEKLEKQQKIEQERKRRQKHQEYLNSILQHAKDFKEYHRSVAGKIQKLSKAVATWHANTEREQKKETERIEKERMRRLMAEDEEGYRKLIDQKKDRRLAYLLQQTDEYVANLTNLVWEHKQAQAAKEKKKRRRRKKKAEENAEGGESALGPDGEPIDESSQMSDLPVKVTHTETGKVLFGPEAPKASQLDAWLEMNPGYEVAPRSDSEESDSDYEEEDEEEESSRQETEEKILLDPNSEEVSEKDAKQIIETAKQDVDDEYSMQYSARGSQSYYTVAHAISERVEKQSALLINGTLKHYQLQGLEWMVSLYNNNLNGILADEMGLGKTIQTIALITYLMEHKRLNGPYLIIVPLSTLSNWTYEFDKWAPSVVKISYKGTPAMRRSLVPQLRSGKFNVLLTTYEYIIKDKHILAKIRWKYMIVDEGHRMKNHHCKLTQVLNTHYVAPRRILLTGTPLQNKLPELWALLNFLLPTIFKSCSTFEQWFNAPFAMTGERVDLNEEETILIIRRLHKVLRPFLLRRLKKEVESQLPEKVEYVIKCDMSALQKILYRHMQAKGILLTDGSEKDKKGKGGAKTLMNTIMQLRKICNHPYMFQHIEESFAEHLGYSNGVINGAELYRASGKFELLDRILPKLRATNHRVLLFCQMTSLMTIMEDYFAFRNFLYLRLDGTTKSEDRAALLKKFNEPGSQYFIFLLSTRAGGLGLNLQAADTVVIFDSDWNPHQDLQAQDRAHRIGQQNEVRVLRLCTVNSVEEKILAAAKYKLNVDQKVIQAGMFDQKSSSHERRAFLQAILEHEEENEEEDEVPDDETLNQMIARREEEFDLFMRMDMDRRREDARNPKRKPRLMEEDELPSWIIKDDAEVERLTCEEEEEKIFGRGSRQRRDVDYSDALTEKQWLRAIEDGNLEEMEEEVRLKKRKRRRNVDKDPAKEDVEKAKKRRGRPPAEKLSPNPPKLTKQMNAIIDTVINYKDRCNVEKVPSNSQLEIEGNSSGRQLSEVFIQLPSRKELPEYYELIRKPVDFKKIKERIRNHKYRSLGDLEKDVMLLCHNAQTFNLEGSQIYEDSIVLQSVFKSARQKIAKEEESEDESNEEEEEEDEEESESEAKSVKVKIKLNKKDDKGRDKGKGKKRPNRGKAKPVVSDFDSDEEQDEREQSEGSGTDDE
PROTOCOL DETAILS: In-cell Western screen of BRM degradation in SW1573 cells (Dmax and DC50)
Type: cell-based
DETAILS: BRM degradation, SW1573 cells; read-out: DC50
Method: In-Cell Western Screen of BRM Degradation in SW1573 Cells […] To read each plate TBS-T was removed, and each plate was inverted tapped on a paper towel. The plates were read on the LI-COR Odyssey with default intensity settings of 5.0 for both channels. LI-COR images were analyzed with the in-cell Western feature of Image Studio Lite.
Below, each entry is listed with its recorded DC50.

MOLECULE	DC50
Cc1ncsc1-c1ccc([C@H](C)NC(=O)[C@@H]2C[C@@H](O)CN2C(=O)[C@H](c2cc(OCCN3CCC(O[C@H]4C[C@H](Oc5cc(N6C7CCC6CN(c6cc(-c8ccccc8O)nnc6N)C7)ccn5)C4)CC3)no2)C(C)C)c(F)c1	> 30 nM

Shift focus to the following entry.
Exercise: Given the molecule Cc1ncsc1-c1ccc([C@H](C)NC(=O)[C@@H]2C[C@@H](O)CN2C(=O)[C@@H](NC(=O)COCCN2CCC(O[C@H]3C[C@H](Oc4cc(N5C6CCC5CN(c5cc(-c7ccccc7O)nnc5N)C6)ccn4)C3)CC2)C(C)(C)C)cc1 , what is its reported DC50?
Solution: < 2.5 nM

###

TARGET: BRM (Homo sapiens, UniProt P51531)
Construct: In-Cell Western Screen of BRM Degradation in SW1573 Cells; endogenous in cells; host or cells: SW1573
PROTOCOL DETAILS: In-cell Western screen of BRM degradation in SW1573 cells (Dmax and DC50)
Type: cell-based
DETAILS: BRM degradation, SW1573 cells; read-out: DC50
Below, each entry is listed with its recorded DC50.

Answered examples (4):
COMPOUND	TARGET	DC50
CC(=O)N1CC(NC(=O)[C@@H]2C[C@@H](O)CN2C(=O)[C@@H](c2cc(OCCN3CCN(CCOc4cc(N5C6CCC5CN(c5cc(-c7ccccc7O)nnc5N)C6)ccn4)CC3)no2)C(C)C)(c2ccc(-c3scnc3C)cc2)C1 [compound 127]	BRM (Homo sapiens, UniProt P51531)	10 to 30 nM
Cc1ncsc1-c1ccc([C@H](C)NC(=O)[C@@H]2C[C@@H](O)CN2C(=O)[C@H](c2cc(OCCN3CCN(CCOc4cc(N5C6CCC5CN(c5cc(-c7ccccc7O)nnc5N)C6)ccn4)CC3)no2)C(C)C)cc1 [compound 46]	BRM (Homo sapiens, UniProt P51531)	> 30 nM
Cc1ncsc1-c1ccc([C@H](C)NC(=O)[C@@H]2C[C@@H](O)CN2C(=O)[C@H](c2cc(OCCN3CCC4(CC3)CC(OCCN3CCOC5(CCN(c6cc(-c7ccccc7O)nnc6N)CC5)C3)C4)no2)C(C)C)cc1 [compound 164]	BRM (Homo sapiens, UniProt P51531)	10 to 30 nM
Cc1ncsc1-c1ccc([C@H](C)NC(=O)[C@@H]2C[C@@H](O)CN2C(=O)C(c2cc(OCCN3CCN(CCO[C@H]4C[C@H](OCCN5CCOC6(CCN(c7cc(-c8ccccc8O)nnc7N)CC6)C5)C4)CC3)no2)C(C)C)cc1 (some centres unmarked) [compound 192]	BRM (Homo sapiens, UniProt P51531)	< 2.5 nM

Exercise: Given the compound Cc1ncsc1-c1ccc(CNC(=O)[C@@H]2C[C@@H](O)CN2C(=O)[C@@H](c2cc(OCCOCCOCCOc3cc(N4C5CCC4CN(c4cc(-c6ccccc6O)nnc4N)C5)ccn3)no2)C(C)C)cc1 [compound 28] , what is its reported DC50?
Solution: < 2.5 nM

Exercise: Given the compound Cc1ncsc1-c1ccc([C@H](C)NC(=O)[C@@H]2C[C@@H](O)CN2C(=O)[C@@H](c2cc(N3CCC(CN4CCC(O[C@H]5C[C@H](Oc6cc(/C=C/c7cc(-c8ccccc8O)nnc7N)ccn6)C5)CC4)CC3)no2)C(C)C)cc1 [compound 626] , what is its reported DC50?
Solution: < 2.5 nM

Exercise: Given the compound Cc1ncsc1-c1ccc([C@H](C)NC(=O)[C@@H]2C[C@@H](O)CN2C(=O)[C@@H](c2onc(OCCN3CCN(CCOc4cc(N5C6CCC5CN(c5cc(-c7ccccc7O)nnc5N)C6)ccn4)CC3)c2Cl)C(C)C)cc1 [compound 55] , what is its reported DC50?
Solution: < 2.5 nM

Exercise: Given the compound Cc1ncsc1-c1cc(F)c([C@H](C)NC(=O)[C@@H]2C[C@@H](O)CN2C(=O)[C@@H](c2cc(N3CCC(CN4CCC(O[C@H]5C[C@H](Oc6cc(N7C8CCC7CN(c7cc(-c9ccccc9O)nnc7N)C8)ccn6)C5)CC4)CC3)no2)C(C)C)cc1F [compound 681] , what is its reported DC50?
Solution: < 2.5 nM

Exercise: Given the compound Cc1ncsc1-c1ccc([C@H](C)NC(=O)[C@@H]2C[C@@H](O)CN2C(=O)[C@@H](c2cc(N3CCN(C(C)(C)C4CCN(C[C@H]5C[C@H](Oc6cc(N7C8CCC7CN(c7cc(-c9ccccc9O)nnc7N)C8)ccn6)C5)CC4)CC3)no2)C(C)C)cc1 [compound 715] , what is its reported DC50?
Solution: < 2.5 nM
